assay: in vivo
recordedConditions: Hanover Wistar, rat, iv, 12.5 mg/kg, Concentration of STI571 in brain, individual data
valueType: concentration at 4 h

For reference, reported concentration at 4 h for Cc1ccc(NC(=O)c2ccc(CN3CCN(C)CC3)cc2)cc1Nc1nccc(-c2cccnc2)n1 stands at 102 ng/g

###

assay: in vivo
recordedConditions: Hanover Wistar, rat, iv, 12.5 mg/kg
valueType: Cmax
Quick note: number first, unit second.

For reference, reported Cmax for Cc1ccc(NC(=O)c2ccc(CN3CCN(C)CC3)cc2)cc1Nc1nccc(-c2cccnc2)n1 stands at 893 ng/g

###

assay: in vivo
recordedConditions: Hanover Wistar, rat, iv, 12.5 mg/kg, Concentration of STI571 in brain, Mean
valueType: concentration at 0.25 h (ng/g)
Report as a plain number; the unit ng/g is understood.

For reference, reported concentration at 0.25 h for Cc1ccc(NC(=O)c2ccc(CN3CCN(C)CC3)cc2)cc1Nc1nccc(-c2cccnc2)n1 [STI571] stands at 893
